System: ω-carboxyalcohol oxidase
ASSAY: Substrate specificity of ω-carboxyalcohol oxidase (peroxidase/4-aminoantipyrine H2O2 assay)
Assay type: biochemical, Streptomyces sp. AC 8205
PARTICULARS: statement in words, from Table 2

| COMPOUND | Substrate specificity |
| --- | --- |
| CCO [H3 C--CH2 --OH, ethanol] | no specificity |
| OCC(O)CO [glycerol] | no specificity |
| CO [H3 C--OH, methanol] | no specificity |

---

System: ω-carboxyalcohol oxidase
ASSAY: Substrate specificity of ω-carboxyalcohol oxidase (peroxidase/4-aminoantipyrine H2O2 assay)
Format: biochemical, Streptomyces sp. AC 8205
Design: concentration or dose not given beside the values
PARTICULARS: substrate in place of 12-hydroxydodecanoic acid; activity on 12-hydroxydodecanoic acid defined as 100; pH 7.5, 37° C., 10 mins.
REPORTED PROPERTY: Relative Activity (%)
Answers are plain numbers, in %.

| COMPOUND | SYSTEM | UNITS | Relative Activity (%) |
| --- | --- | --- | --- |
| CCCCCCCCO [H3 C--(CH2)7 --OH] | ω-carboxyalcohol oxidase | % | 88.5 |
| CCCCCCO [H3 C--(CH2)5 --OH] | ω-carboxyalcohol oxidase | % | 88.5 |
| O=C(O)CCCCCCCCCCCCCCCO [HO2 C--(CH2)15 --OH, 16-hydroxy hexadecanoic acid] | ω-carboxyalcohol oxidase | % | 65.5 |
| CO [H3 C--OH, methanol] | ω-carboxyalcohol oxidase | % | 0 |
| CCO [H3 C--CH2 --OH, ethanol] | ω-carboxyalcohol oxidase | % | 0 |

Dear colleague, could you please provide Relative Activity (%) for the compounds listed below?
1. O=C(O)CCCCCCCCCCCO [HO2 C--(CH2)11 --OH, 12-hydroxydodecanoic acid]
2. CCCCCCCCCCCCCCO [H3 C--(CH2)13 --OH]
3. CCCCO [H3 C--(CH2)3 --OH]

Output:
100
76.1
76.1
